Test: NF-kB promoter reporter activators, neuronal cells, dose response, cell-based, SH-SY5Y, luciferase (AID 1241)
Settings: fold induction
pEC50: −log10 of the molar value.
Catalogue of compounds with associated pEC50
property measured: pEC50

>  <compound>
Cc1ccc(N/C=C(/C#N)c2ccsc2)cc1C

>  <observed value>
5.16

$$$$
>  <compound>
O=C(COc1ccc(CO)cc1Cl)Nc1ccc(F)cc1

>  <observed value>
5.80

$$$$
>  <compound>
CC(C)c1ccc(/C=C/C(=O)Nc2nncs2)cc1

>  <observed value>
5.35

$$$$
>  <compound>
CC1CCN(c2nc3ccc(C(=O)O)cc3s2)CC1

>  <observed value>
6.41

$$$$
>  <compound>
Cc1ccn2cc(-c3cc4ccccc4oc3=O)nc2c1

>  <observed value>
6.86

$$$$
>  <compound>
COc1cccc(NC(=O)Nc2ccc3c(c2)nc(C)n3C)c1

>  <observed value>
5.03

$$$$
>  <compound>
O=C1/C(=C\c2ccco2)CCC/C1=C\c1ccco1

>  <observed value>
5.30

$$$$
>  <compound>
O=C(Nc1ccc2oc(-c3ccccc3F)nc2c1)c1ncn[nH]1

>  <observed value>
5.67

$$$$
>  <compound>
CCOC(=O)c1sc2nc(-c3cccnc3)ccc2c1N

>  <observed value>
5.87

$$$$
>  <compound>
COc1ccc2c(c1OC)C(=O)OC2Nc1nc(-c2ccc(-c3ccccc3)cc2)cs1 (stereo not given)

>  <observed value>
5.53

$$$$
>  <compound>
O=C(/C=C\Nc1cccc(F)c1)c1cccs1

>  <observed value>
6.46

$$$$
>  <compound>
CCOC(=O)c1sc(NC(=O)Nc2ccc(F)cc2)nc1C

>  <observed value>
5.57

$$$$
>  <compound>
Cc1ccc(NC(=O)c2ccccc2)s1

>  <observed value>
5.19

$$$$
>  <compound>
COc1cccc(-c2noc(-c3ccc4c(c3)OCO4)n2)c1

>  <observed value>
6.30

$$$$
>  <compound>
O=[N+]([O-])c1cc(O)c2ncccc2c1

>  <observed value>
5.10

$$$$
>  <compound>
CCOC(=O)c1c(N)sc(C(=O)Nc2ccc3c(c2)OCO3)c1C

>  <observed value>
6.06

$$$$
>  <compound>
CC(/C=N/NC(=O)c1ccco1)=C\c1ccccc1

>  <observed value>
5.33

$$$$
>  <compound>
O=C(O)c1ccc(N/N=C/c2cn(-c3ccccc3)nc2-c2cccs2)cc1

>  <observed value>
5.77

$$$$
>  <compound>
CCOC(=O)/C(=C\c1ccccc1)C(=O)c1cc(C(C)=O)c(Nc2ccccc2)s1

>  <observed value>
4.76

$$$$
>  <compound>
CCCCc1ccc(-c2nc(-c3ccncc3)no2)cc1

>  <observed value>
5.38

$$$$
>  <compound>
O=C(Nc1cccnc1)c1cc2c(ccc3ccccc32)o1

>  <observed value>
5.46

$$$$
>  <compound>
Cc1ccc(NC(=O)c2ccc3ccccc3n2)nc1

>  <observed value>
5.39

$$$$
>  <compound>
Cc1cccnc1Nc1nc(-c2ccc(O)cc2)cs1

>  <observed value>
5.09

$$$$
>  <compound>
Cc1ccc2nc(-c3ccc(NC(=O)CNC4CC4)cc3)sc2c1

>  <observed value>
5.77

$$$$
>  <compound>
Cc1cnc(NC(=O)Nc2ccc(Cl)cc2)s1

>  <observed value>
4.62

$$$$
